Test: in vitro
Parameters: species or system HB2, HEK293
Conditions: human, ccd841 cells
Task for the reader: assign each of the following molecules its reported viability at 48 h, 10 µM.
Answer in %, number only, no unit symbol.

Prompt: Sample CN(C(=O)CCl)C1CCS(=O)(=O)C1 (centres unmarked) — what was its viability at 48 h, 10 µM?
Completion: 72.1

Prompt: Note, next up: `O=C(CCl)N1CCCCC1`
Completion: 88.1

Prompt: Note, next up: `O=C(CCl)Nc1ccc(N2CCCC2=O)cc1`
Completion: 65.3

Prompt: Note, next up: `O=C(CCl)NC(=O)NCc1ccccc1`
Completion: 76.9

Prompt: Note, next up: `C=CC(=O)N1CCC2(CCN(C)C2=O)CC1`
Completion: 100

Prompt: Note, next up: `Cc1cc(N2CCN(C(=O)CCl)CC2)nc(C(C)C)n1`
Completion: 107

Prompt: Note, next up: `Cc1ccc(C)c(-n2nc(C)cc2NC(=O)CCl)c1`
Completion: 64

Prompt: Note, next up: `COC(=O)c1ccc(C)c(NC(=O)CCl)c1`
Completion: 54.7

Prompt: Note, next up: `Cc1cc(NC(=O)CCl)n(C)n1`
Completion: 54.4

Prompt: Note, next up: O=C(CCl)NC1CCOc2ccccc21 (centres unmarked)
Completion: 87.1

Prompt: Note, next up: `N#Cc1c(NC(=O)CCl)sc2c1CCC2`
Completion: 93.5

Prompt: Note, next up: `O=C(CCl)NCc1ccccc1F`
Completion: 63.7

Prompt: Note, next up: `Cl.O=C(CCl)N1CCN(Cc2ccc(Cl)cc2)CC1`
Completion: 31.6

Prompt: Note, next up: `COC(=O)c1sccc1NC(=O)CCl`
Completion: 85.5

Prompt: Note, next up: CC(C)C(C#N)N1CCN(C(=O)CCl)CC1 (centres unmarked)
Completion: 65.2

Prompt: Note, next up: `CN(C)c1ccc(Cl)cc1NC(=O)CCl`
Completion: 85.9

Prompt: Note, next up: `NS(=O)(=O)c1ccccc1NC(=O)CCl`
Completion: 55.2

Prompt: Note, next up: O=C(CCl)N(C1CCCC1)C1CCS(=O)(=O)C1 (centres unmarked)
Completion: 65.9

Prompt: Note, next up: `COC(=O)C1CCN(C(=O)CCl)CC1`
Completion: 110

Prompt: Note, next up: `O=C(CCl)Nc1ccc2[nH]c(=O)[nH]c2c1`
Completion: 73.7

Prompt: Note, next up: CC(NC(=O)CCl)c1cccc(Cl)c1 (centres unmarked)
Completion: 73.2

Prompt: Note, next up: `C=CC(=O)N1CCN(C(C)C)c2ccccc2C1`
Completion: 93.1

Prompt: Note, next up: `C=CC(=O)NCc1cc(F)c(C(F)(F)F)cc1F`
Completion: 96.9

Prompt: Note, next up: `CC(C)(O)CNC(=O)CCl`
Completion: 99.5

Prompt: Note, next up: `CC(C)N(CC(F)(F)F)C(=O)CCl`
Completion: 109

Prompt: Note, next up: C=CC(=O)NCC1CCC2(CCOCC2)C1O (centres unmarked)
Completion: 110

Prompt: Note, next up: CC(C)(C)C(NC(=O)CCl)c1cccs1 (centres unmarked)
Completion: 72.8

Prompt: Note, next up: `C=CC(=O)NC(C)(C)c1noc(C(C)(C)C)n1`
Completion: 108

Prompt: Note, next up: Cc1ccc(C(C)NC(=O)CCl)cc1C (centres unmarked)
Completion: 78.1

Prompt: Note, next up: `N#CC1(NC(=O)CCl)CCCC1`
Completion: 61.1

Prompt: Note, next up: `O=C(CCl)Nc1ccc2c(c1)CCC2`
Completion: 56.2

Prompt: Note, next up: `Cc1ccsc1CN(C)C(=O)CCl`
Completion: 56.7

Prompt: Note, next up: `O=C(CCl)N1CCN(S(=O)(=O)c2ccc(F)c(F)c2)CC1`
Completion: 48.1

Prompt: Note, next up: `COC(=O)c1c(NC(=O)CCl)sc2c1CCCCC2`
Completion: 80.8

Prompt: Note, next up: `Cl.O=C(CCl)NC1CCN(C2CC2)CC1`
Completion: 83
